The values you see were collected from PubChem BioAssay (NCATS).

Assay: SW1088 Cancer Cell Toxicity qHTS against the NCATS CANVASS Library (AID 1347350); note: nearly all actives have a fitted effect of over 75% in size; note: potency is the fitted concentration of half-maximal effect
Settings: SW1088 viability, CellTiter-Glo luminescence, 72 h; series mostly up to 38.3 µM
Results filed as inconclusive are left out. Activity calls are given as the source filed them. Calls come from the whole dose curve; as a rule, active = well fitted cell-killing curve with a large enough effect; inconclusive = small, poorly fitted or top-dose-only effect; inactive = flat fitted curve, though single readings scatter. Square brackets hold non-standard residues; d marks the D form. Peptide text beside a SMILES is read from it. ξ: configuration not given here. ξL = CC(C)CC(N)C(=O)O
MEASUREMENT_LABEL: Potency

In the examples that follow, each entry is paired with its recorded Potency.
Look up and state reported Potency for O=C1CC(c2ccc(O)cc2)Oc2cc(O)ccc21 (stereo not drawn) inactive

Indicate its recorded Potency; the molecule in question is CC[C@@H](C)[C@H]1NC(=O)C(CC(C)C)NC(=O)[C@@H](CC(C)C)NC(=O)[C@H](Cc2c[nH]c3ccccc23)NC(=O)CNC(=O)[C@@H](CC(N)=O)NC1=O (stereo partly drawn) (cyclo(GW[dL][ξL][dI][dN])) 11.9 µM (active)

State, in one line, measured Potency of Oc1ccc(C2Oc3cc(O)c4c(c3[C@@H]2c2cc(O)cc(O)c2)[C@H]2C(c3ccc(O)cc3)c3c(O)cc5c(c3[C@H]2C4c2ccc(O)cc2)[C@H](c2cc(O)cc(O)c2)C(c2ccc(O)cc2)O5)cc1 (stereo partly drawn) inactive

Determine from records and report Potency for COc1cc2c(c(O)c1O)C(=O)c1c(coc1C)C2=O 9.43 µM (active)

Kindly indicate its recorded Potency. Item: C=C1CCC2C(C)(C(=O)O)CCC(CC/C(C)=C/C(=O)NC(CCC(N)=O)C(=O)O)[C@@]2(C)C1 (stereo partly drawn) inactive

Tell us which Potency value is on record for C=CC(C)(C)C(=O)[C@@H](C)[C@@H]1CC[C@@](C)(C=C)O1 inactive

Specify measured Potency for C=CC(CCCCC)C1C(=O)NC(=O)C1C(=O)C1C(/C=C/C)C=CC2CC(C(=O)O)CC(C)C21 (stereo not drawn) . 9.43 µM (active)

***
State its Potency: CC(=O)Oc1cc2c(c(OC(C)=O)c1C1CCc3cc(Cl)c(Cl)n31)C(=O)n1c-2cc(Cl)c1Cl (stereo not drawn) 4.73 µM (active)

###

Experiment: G06 Cancer Cell Toxicity qHTS against the NCATS CANVASS Library (AID 1347368); note: nearly all actives have a fitted effect of over 60% in size
Conditions: G06 dog glioma cells, viability ATP luminescence, 72 h; series mostly up to 46.1 µM
Results filed as inconclusive are left out. Activity calls are given as the source filed them. Calls follow the shape of the dose curve; as a rule, active = well fitted cell-killing curve with a large enough effect; inconclusive = small, poorly fitted or top-dose-only effect; inactive = flat fitted curve, though single readings scatter.
Would you mind answering with one of these outcomes? active, inactive

Can you look up the reported call for CC(=O)O[C@H]1c2ccccc2-c2c3c(cc4c2[C@@H]1N(C(C)=O)CC4)OCO3 for me? inactive

Which outcome did this test record for the compound CC(=O)c1c(C)cc2c(c1O)C(=O)c1c(O)cc(O)cc1C2=O ? inactive

Returns: the outcome recorded for C/C(=C\[C@H](C)C(=O)/C=C/CC1CC(=O)NC(=O)C1)[C@@H]1OC(=O)CCCC/C=C/[C@H](O)[C@@H](O)[C@@H]1C in this assay. active

Fill in: this test's call for C/C=C(/C)c1cc(O)c(C)c2c1Oc1cc(O)cc(C)c1C(=O)O2 is ___ inactive

Query: recorded result category for CC(C)=CC[C@H]1C[C@@]2(CC=C(C)C)C(=O)[C@](CC=C(C)C)(C(=O)C(C(=O)c3ccccc3)=C2O)C1(C)C in this test active

In this assay, the call recorded for COc1ccc([C@@H]2c3cc4c(cc3C(=O)C(C)C2C)OCO4)cc1OC (some centres undefined) was what? inactive

Could you please tell me the result logged for CO[C@H]1[C@@H](OC(=O)/C(C)=C\[C@@H]2O[C@@H]2[C@H]2O[C@H]2C)[C@H](O)[C@H](OCC23C[C@@H]4[C@H](C)CC[C@H]4C4(C=O)CC2C=C(C(C)C)C34C(=O)O)O[C@@H]1C (some centres undefined) in this assay? inactive

What did the test return for C/C=C(/C)c1c(Cl)c(O)c(C)c2c1Oc1c(Cl)c(O)c(Cl)c(C)c1C(=O)O2 ? inactive

Proceed to the following item.
Hi team, can someone confirm the assay call for CC(C)=CCCC(C)(O)[C@H]1CC=C(C)C(O)C1 (some centres undefined) ? inactive

###

Assay: Stat Signaling Pathway (AID 446);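 note: ME-180 cervical cancer cells given 40 pM IL-6 alongside compound; SIE-controlled beta-lactamase reporter measured as 460/530 nm FRET emission ratio; % is set by controls: 0 for no effect and ±100 for the full control effect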
Conditions: ME-180 (cervical carcinoma) SIE beta-lactamase reporter, IL-6 stimulated, 5 h; at 7.69 µM (top of the series) unless noted
Inconclusive results are not listed. The source made the active and inactive calls. Calls follow the shape of the dose curve; as a rule, active = well fitted curve in either direction with a large enough effect (not every such curve was filed as active); inconclusive = small, poorly fitted or top-dose-only effect, or another doubt; inactive = flat fitted curve, though single readings scatter.
MEASUREMENT_LABEL: activity, negative = inhibition

// known answers, use as guide
Using known records, supply activity, negative = inhibition for COc1ccccc1-c1ccc2ncnc(NC3CCNCC3)c2c1 3.74% (inactive)

Entry NC(=NCCC[C@H](N)C(=O)O)NO needs its activity, negative = inhibition filled in; supply it. -18.2% [at 38 µM] (inactive)

Provide only the value of recorded activity, negative = inhibition for COCCn1c(=O)c(-c2ccc(Cl)cc2)nc2cnc(OC)nc21 -10.9% (inactive)

Please give the documented activity, negative = inhibition of CC(C)NC(=O)N1CC[C@@]2(CCCN(C(=O)c3cc(C(F)(F)F)cc(C(F)(F)F)c3)C2)C1 -10.1% (inactive)

Output measured activity, negative = inhibition for this item: COc1ncc2nc(-c3ccc(F)cc3)c(=O)n(-c3ccccc3)c2n1 -2.33% (inactive)

Each of the following entries comes with a recorded value; kindly state activity, negative = inhibition for each.
1. NCCNC(=O)c1ccc(Cl)cc1
2. CC(=O)N1CCC2(CCCN(c3ccccn3)C2)CC1

1. -2.11% [at 38 µM] (inactive)
2. -5.49% (inactive)

###

Molecular target: Glucocorticoid receptor (Homo sapiens) (UniProt P04150)
Sequence (P04150 whole entry, looked up): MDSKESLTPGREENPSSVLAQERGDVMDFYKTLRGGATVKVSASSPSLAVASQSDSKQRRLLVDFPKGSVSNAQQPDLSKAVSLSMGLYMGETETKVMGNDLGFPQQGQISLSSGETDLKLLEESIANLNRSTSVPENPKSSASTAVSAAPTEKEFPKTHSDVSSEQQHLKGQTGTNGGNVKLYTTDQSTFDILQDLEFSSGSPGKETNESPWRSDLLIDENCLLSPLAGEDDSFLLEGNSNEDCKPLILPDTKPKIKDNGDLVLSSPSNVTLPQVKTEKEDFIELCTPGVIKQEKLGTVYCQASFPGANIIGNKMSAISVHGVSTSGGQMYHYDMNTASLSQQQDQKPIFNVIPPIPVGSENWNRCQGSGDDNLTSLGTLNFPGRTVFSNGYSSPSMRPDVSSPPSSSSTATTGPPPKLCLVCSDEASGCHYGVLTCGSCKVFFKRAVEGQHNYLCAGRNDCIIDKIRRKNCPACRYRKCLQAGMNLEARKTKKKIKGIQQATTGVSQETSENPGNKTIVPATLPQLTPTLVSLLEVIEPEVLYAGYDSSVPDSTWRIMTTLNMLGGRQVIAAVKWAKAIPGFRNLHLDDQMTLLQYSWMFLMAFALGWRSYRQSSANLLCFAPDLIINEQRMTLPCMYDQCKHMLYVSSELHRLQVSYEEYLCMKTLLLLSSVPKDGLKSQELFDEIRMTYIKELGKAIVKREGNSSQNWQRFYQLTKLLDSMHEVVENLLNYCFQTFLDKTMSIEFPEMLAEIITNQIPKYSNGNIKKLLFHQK
Assay: GR-GFP Redistribution (AID 450); note: potency is the fitted concentration of half-maximal effect
Details: U2OS GR-GFP nuclear translocation, laser cytometry, 2 h
Active and inactive are the calls of the source.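 Rule for the calls: active = compounds whose dose series gives a full or clear partial fitted curve of increased nuclear translocation; inconclusive = weak partial curve or effect only at the top dose; inactive = no dose-dependent translocation response.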
MEASUREMENT_LABEL: Potency

Past entries and their recorded results:
Tell me its Potency on Glucocorticoid receptor (Homo sapiens) (UniProt P04150): O=c1cnc2cnc(Oc3cccc(Cl)c3)nc2n1C[C@H]1CCCO1 > 9.22 µM (inactive)

Using Glucocorticoid receptor (Homo sapiens) (UniProt P04150) as the test system, report measured Potency of CN1CCN(c2ncc3nc(-c4ccccc4)c(=O)n(-c4ccccc4)c3n2)CC1 . > 9.22 µM (inactive)

Please report the measured Potency for COCCNc1nc(-c2ccccc2OC)nc2ccccc12 tested on Glucocorticoid receptor (Homo sapiens) (UniProt P04150). > 46 µM (inactive)

Hi, could you look up Potency for each item in my list?
1. Cc1ccccc1-c1ccc2ncnc(NC3CC3)c2c1
2. CC(=O)NCCc1ccc(O)c(O)c1
3. N#Cc1cccc(-c2nc3cnc(Oc4cccc(Cl)c4)nc3n(C3CC3)c2=O)c1

1. > 46 µM (inactive)
2. > 46 µM (inactive)
3. > 9.22 µM (inactive)

###

Assay: qHTS assay to identify inhibitors of the type 1 interferon - major histocompatibility complex class I in skeletal muscle: Counter screen cell viability and HiBit confirmation (AID 1347412); note: % is set by controls: 0 for no effect and ±100 for the full control effect; nearly all actives have a fitted effect of over 60% in size
Conditions: iHSKM muscle cells + IFN-b, HiBiT or CellTiter-Glo, 24 h; HiBiT; at 45.9 µM (top of the series)
Results filed as inconclusive are left out.
Exercise: state measured activity change, negative = inhibition for each of the compounds provided.
Numbers only, in %.

Solved entries (count: 5):
Fill in reported activity change, negative = inhibition for this entry: O=C(CCc1ccc(O)cc1)c1c(O)cc(O)cc1O[C@@H]1O[C@H](CO)[C@@H](O)[C@H](O)[C@H]1O 6.74

Answer with the recorded activity change, negative = inhibition for the compound listed here: COc1cc2c3c(n(CCCNCCO)c(=O)c2cc1OC)-c1cc2c(cc1C3=O)OCO2 -14.1

Provide activity change, negative = inhibition value for the following compound: COc1cc(=C2C=c3ccccc3=N2)[nH]/c1=C/c1[nH]c(C)cc1C -23.6

Annotate the compound C=C1/C(=C\C=C2/CCC[C@]3(C)[C@@H]([C@H](C)CCCC(C)(C)O)CC[C@@H]23)C[C@@H](O)C[C@@H]1O with its measured activity change, negative = inhibition. -12.1

Provide only the value of recorded activity change, negative = inhibition for Cc1cc(C)c(CNC(=O)c2cc(-c3ccc(N4CCN(C)CC4)nc3)cc3c2c(C)cn3C(C)C)c(=O)[nH]1 0.953

The following compounds each have a reported value; give each one's activity change, negative = inhibition.
1. COc1nc(OCc2cccc(-c3ccccc3)c2C)ccc1CNCCNC(C)=O
2. CN(C)CCOc1ccc(-c2nc(-c3ccc4c(c3)CC/C4=N\O)c(-c3ccncc3)[nH]2)cc1
3. C=CCN(/C=C1\C(=O)O[C@@H](COC)[C@]2(C)C1=C(O)C(=O)C1=C2[C@@H](OC(C)=O)C[C@]2(C)C(=O)CC[C@H]12)CC=C

[-16.7, 24.4, -5.45]

// Input: CC#CC(=O)N1CC[C@@H](n2c(=O)n(-c3ccc(Oc4ccccc4)cc3)c3c(N)ncnc32)C1 . Output its activity change, negative = inhibition only. -23.5
